The reported numbers originate from paper PMC5540273.

# Test system: AKT2
# Condition: concentration: 1 μM, replicates: in singlicate; n = 1;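 further: KINOMEscan kinase panel screen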

# Molecule, Target or test system, %Inh [%]
rows = [
    ("Cc1cccc(-c2nc(Nc3ccncc3)c3ccccc3n2)n1 [GW855857]", "AKT2", 0),
    ("CN(C)CCN(C)C(=O)c1cc(-c2ccncc2)c(-c2ccc(Cl)c(O)c2)o1.Cl.Cl [SB-710397]", "AKT2", 0),
    ("COc1cccc(-c2cc(-c3c[nH]nc3-c3ccccn3)ccn2)c1 [GW680338]", "AKT2", 0),
    ("COc1cccc(NC(=O)NC2CCN(c3ccnc(Nc4ccc(F)cc4)n3)C2)c1 (centres unmarked) [GSK1379721]", "AKT2", 0),
    ("Cc1cc(NCC(c2ccccc2)c2ccccc2)nc(NCc2ccc(C(F)(F)F)cc2)n1 [GW497681]", "AKT2", 0),
]

====

# Tested on: MAP4K5
# Condition: concentration: 1 μM, replicates: in singlicate; n = 1

# Compound, Target or test system, %Inh (%)
rows = [
    ("COc1ccc(Nc2nccc(-c3cccc(NC(=O)c4cc5cc(F)ccc5[nH]4)c3)n2)cc1", "MAP4K5", 7),
    ("Cc1cccc(-c2nc(-c3ccc(S(C)(=O)=O)cc3)sc2-c2ccnc(NCCc3ccccc3)c2)c1", "MAP4K5", 0),
    ("CSc1nn2c(=O)cc(N3CCOCC3)nc2n1Cc1cccc(C(F)(F)F)c1C", "MAP4K5", 0),
    ("COc1cccc(NC(=O)NC2CCN(c3ccnc(Nc4ccc(F)cc4)n3)C2)c1 (stereo not drawn)", "MAP4K5", 96.7),
    ("COc1cc2ncnc(Nc3ccc4nc(-c5ccccc5)[nH]c4c3)c2cc1OC.Cl", "MAP4K5", 0),
    ("Cc1nnc(-c2ccc3occ(-c4ccc(S(C)=O)cc4)c3c2)[nH]1 (stereo not drawn)", "MAP4K5", 0),
    ("Cc1csc(-c2nc(Nc3ccncc3)c3ccccc3n2)n1", "MAP4K5", 0),
    ("Cc1ccccc1-n1cnc2c(N)ncnc21", "MAP4K5", 0),
    ("Cc1ccc(NC(=O)Nc2cc(C(C)(C)C)nn2-c2ccccc2)cc1", "MAP4K5", 11),
    ("O=C(Nc1n[nH]c2nc(-c3nccs3)c(Br)cc12)C1CCCC1", "MAP4K5", 4),
    ("CCn1c(-c2cccnc2O)nc2cnccc21", "MAP4K5", 0),
    ("O=C(Nc1n[nH]c2nc(-c3nccs3)c(Br)cc12)C1CC1", "MAP4K5", 1),
    ("CN(C)CCN(C)C(=O)c1cc(-c2ccncc2)c(-c2ccc(Cl)c(O)c2)o1.Cl.Cl", "MAP4K5", 0),
    ("Cc1cccc(-c2nc(C)cc(Nc3ccncc3)n2)n1", "MAP4K5", 0),
    ("O=C1NC(=O)C(N2CCc3ccccc32)=C1c1ccccc1Cl", "MAP4K5", 24),
]

====

# System: HIPK1
# Condition: concentration: 1 μM, replicates: in singlicate; n = 1
Entries and their %Inh values follow.

# Molecule, Target or test system, %Inh
data = [
    ("O=C(O)COc1ncnc2cc(-c3ccc4[nH]ncc4c3)sc12", "HIPK1", "45%"),
    ("Cl.c1ccc(-c2n[nH]cc2-c2ccnc(-c3ccc(CN4CCOCC4)cc3)c2)nc1", "HIPK1", "54%"),
    ("COC(=O)c1c(-c2ccccc2)c2cc(OC)ccc2c(=O)n1Cc1ccccc1", "HIPK1", "7%"),
    ("Fc1cc(Cl)ccc1Nc1ccnc2cc(I)ccc12", "HIPK1", "0%"),
    ("Cc1cccc(-c2nc(Nc3ccc4[nH]ncc4c3)c3ccccc3n2)n1", "HIPK1", "0%"),
    ("CN(C)CCN(C)C(=O)c1cc(-c2ccncc2)c(-c2ccc(Cl)c(O)c2)o1.Cl.Cl", "HIPK1", "0%"),
    ("NC(=O)c1nnc2ccccc2c1N", "HIPK1", "45%"),
    ("CCn1c(-c2cccnc2O)nc2cnccc21", "HIPK1", "11%"),
    ("Cl.O=C(Nc1cccc(-c2nn3ncccc3c2-c2ccnc(Nc3cccnc3)n2)c1)c1c(F)cccc1F", "HIPK1", "0%"),
    ("Cc1cccc(-c2nc(Nc3cccc(C(N)=O)c3)c3ccccc3n2)n1", "HIPK1", "44%"),
    ("COc1cc2ncnc(Nc3ccc4nc(-c5ccccc5)[nH]c4c3)c2cc1OC.Cl", "HIPK1", "6%"),
    ("COc1ccc2nc(-c3cccc(C)n3)nc(Nc3ccncc3)c2c1", "HIPK1", "0%"),
    ("CC(C)(C)c1ccc(C(=O)Nc2cn3cc(-c4cccnc4)ccc3n2)cc1", "HIPK1", "52%"),
    ("Cc1ccc(C(=O)Nc2ccc(Nc3ccnc4cc(-c5ccccn5)ccc34)cc2O)cc1.Cl", "HIPK1", "8%"),
    ("Nc1nc(-c2nccs2)c(-c2ccnc3ccccc23)s1", "HIPK1", "3%"),
    ("O=C(Nc1ccc2c(c1)OCO2)NC1CCN(c2ccnc(Nc3ccc(F)cc3)n2)C1 (stereo not drawn)", "HIPK1", "0%"),
    ("CS(=O)(=O)c1ccc(-c2c(-c3ncn[nH]3)sc(N3CCOCC3)c2C#N)cc1", "HIPK1", "38%"),
    ("CN1C(=O)C(Nc2ccc(Cl)c(C(=O)O)c2)=C(c2ccc(Cl)cc2)C1=O", "HIPK1", "19%"),
    ("COc1cc2ncn(-c3cc(OCC4CCCO4)c(C(N)=O)s3)c2cc1OC (stereo not drawn)", "HIPK1", "7%"),
    ("Cc1cc(N2Cc3ccccc3C2)nc(Nc2ccc(S(=O)(=O)N3CCOCC3)cc2)n1.Cl", "HIPK1", "0%"),
    ("COc1ccc(CNC(=O)NC2CCN(c3ccnc(Nc4cc(OC)c(OC)c(OC)c4)n3)C2)cc1 (stereo not drawn)", "HIPK1", "0%"),
    ("Cc1ccc(NC(=O)Nc2cccc(Cl)c2)cc1-c1ccc(C(=O)Nc2ccncc2)cc1", "HIPK1", "0%"),
    ("Cc1c(O)cccc1Nc1ccnc2ccc(C(F)(F)F)cc12.Cl", "HIPK1", "0%"),
    ("CCCc1ccc(S(=O)(=O)NC2CCN(c3ccnc(Nc4ccc(F)cc4)n3)C2)cc1 (stereo not drawn)", "HIPK1", "0%"),
    ("COc1ccc(C2=C(Nc3cccc(C(=O)O)c3)C(=O)NC2=O)cc1", "HIPK1", "8%"),
    ("Cc1cccc(-c2nc(-c3ccc(S(C)(=O)=O)cc3)sc2-c2ccnc(NCCc3ccccc3)c2)c1", "HIPK1", "15%"),
    ("O=C1NC(=O)C(N2CCc3ccccc32)=C1c1ccccc1Cl", "HIPK1", "30%"),
    ("CC(=O)Nc1nc2cnc(Nc3cc(NC(=O)c4cccc(CCC#N)c4)ccc3C)nc2s1", "HIPK1", "15%"),
    ("Cl.Oc1ccc(-c2nc(-c3ccccc3)[nH]c2-c2ccncc2)cc1", "HIPK1", "5%"),
    ("O=c1cc(N2CCOCC2)nc2n(Cc3cccc(Cl)c3Cl)ccn12", "HIPK1", "13%"),
]
